- Test system: UO-31
- procedure-text: NCI DTP in-vitro dose response, Renal Cancer
- Type: cell-based
value-kind: CC50

**Query** Consider the compound "CCc1nc2ccc3c(c2[nH]1)C(=O)c1ccccc1C3=O" and give its recorded CC50.
**Result** > 100 µM

###

- Test system: SK-MEL-28
- procedure-text: NCI DTP in-vitro dose response, Melanoma
- Type: cell-based
Listed below: CC50 values for each entry.

1. CCc1nc2ccc3c(c2[nH]1)C(=O)c1ccccc1C3=O [TABLE 4-5] ... > 100 µM

# input for lookup
**Query** Return CC50 for the following compound: O=C1c2ccccc2C(=O)c2c1ccc1nccnc21 [TABLE 5-5]
**Result** > 100 µM

###

- Tested on: SN12C
- procedure-text: NCI DTP in-vitro dose response, Renal Cancer
- Assay type: cell-based
- run-conditions: SN12C; read-out: LC50 (the source's name)
value-kind: CC50

**Query** Respond only with CC50 recorded for O=C1c2ccccc2C(=O)c2c1ccc1nccnc21 [TABLE 5-7]
**Result** > 100 µM

###

- System: EKVX
value-kind: CC50

**Query** Enter CC50 (test system EKVX) for "O=C1c2ccccc2C(=O)c2c1ccc1nccnc21"
**Result** > 100 µM

###

- System: MDA-MB-231/ATCC
- procedure-text: NCI DTP in-vitro dose response, Breast Cancer
- Type: cell-based
- run-conditions: MDA-MB-231/ATCC; read-out: LC50 (the source's name)
value-kind: CC50

**Query** Give reported CC50 value for "O=C1c2ccccc2C(=O)c2c1ccc1nccnc21"
**Result** > 100 µM

###

- System: HCT-116
- procedure-text: NCI DTP in-vitro dose response, Colon Cancer
- Assay type: cell-based
// values below are reported CC50

1. O=C1c2ccccc2C(=O)c2c1ccc1nccnc21 ... > 100 µM

As a next step, examine the molecule that follows.
**Query** Tell us which CC50 value is on record for "CCc1nc2ccc3c(c2[nH]1)C(=O)c1ccccc1C3=O"
**Result** > 100 µM

###

- System: MDA-MB-435
- procedure-text: NCI DTP in-vitro dose response, Breast Cancer
- Assay type: cell-based
- run-conditions: MDA-MB-435; read-out: LC50 (the source's name)
value-kind: CC50 (µM)
Express the result in µM but write the number alone.

**Query** Consider the compound "O=C1c2ccccc2C(=O)c2c1ccc1nccnc21" and give its recorded CC50.
**Result** 50.4

###

CC50 for assorted compounds
- Test system: COLO 205
- procedure-text: NCI DTP in-vitro dose response, Colon Cancer
- Assay type: cell-based

1. CCc1nc2ccc3c(c2[nH]1)C(=O)c1ccccc1C3=O ... > 100 µM

Now examine the next entry.
**Query** Tell me its CC50 given "O=C1c2ccccc2C(=O)c2c1ccc1nccnc21" as the entry.
**Result** > 100 µM

###

- System: TK-10
- procedure-text: NCI DTP in-vitro dose response, Renal Cancer
- Format: cell-based
value-kind: CC50

**Query** Return reported CC50 for target or system TK-10, item "CCc1nc2ccc3c(c2[nH]1)C(=O)c1ccccc1C3=O" .
**Result** > 100 µM

###

- Tested on: MCF7
- procedure-text: NCI DTP in-vitro dose response, Breast Cancer
- Type: cell-based
- run-conditions: MCF7; read-out: LC50 (the source's name)
value-kind: CC50

**Query** Provide MCF7 CC50 reading for "O=C1c2ccccc2C(=O)c2c1ccc1nccnc21" .
**Result** > 100 µM
